Assay: Compound dose toxic against mouse peritoneal macrophages infected with Leishmania donovani
Type: ADME

{"columns": ["structure-as-smiles", "units-symbol", "Toxic dose"],
 "data": [
  ["CC1=CC(=O)c2ccccc2C1=O", "µM", 30],
  ["CC1=C(NCCCNCCCCNCCCNC2=C(C)C(=O)c3ccccc3C2=O)C(=O)c2ccccc2C1=O", "µM", 30],
  ["CC1=C(NCCCN2CCN(CCCN)CC2)C(=O)c2c(O)cccc2C1=O", "µM", 30],
  ["CN1CCN(C(=O)CCCCCC2=C(CCCCCC(=O)N3CCN(C)CC3)C(=O)c3c(O)cccc3C2=O)CC1", "µM", 3],
  ["CC1=C(NCCCNCCCCNCCCN)C(=O)c2ccccc2C1=O", "µM", 30],
  ["CN1CCN(CCCNC(=O)CCCCCC2=C(CCCCCC(=O)NCCCN3CCN(C)CC3)C(=O)c3c(O)cccc3C2=O)CC1", "µM", 10],
  ["CN1CCN(C(=O)CCCCC2=C(CCCCC(=O)N3CCN(C)CC3)C(=O)c3c(O)cccc3C2=O)CC1", "µM", 3]
]}

Origin of the recorded values: ChEMBL document CHEMBL1134791
